studySystem: T1, chick N-cadherin expressed on transfected 3T3 cells (chick, UniProt P10288 165-912)
T1 sequence (looked up): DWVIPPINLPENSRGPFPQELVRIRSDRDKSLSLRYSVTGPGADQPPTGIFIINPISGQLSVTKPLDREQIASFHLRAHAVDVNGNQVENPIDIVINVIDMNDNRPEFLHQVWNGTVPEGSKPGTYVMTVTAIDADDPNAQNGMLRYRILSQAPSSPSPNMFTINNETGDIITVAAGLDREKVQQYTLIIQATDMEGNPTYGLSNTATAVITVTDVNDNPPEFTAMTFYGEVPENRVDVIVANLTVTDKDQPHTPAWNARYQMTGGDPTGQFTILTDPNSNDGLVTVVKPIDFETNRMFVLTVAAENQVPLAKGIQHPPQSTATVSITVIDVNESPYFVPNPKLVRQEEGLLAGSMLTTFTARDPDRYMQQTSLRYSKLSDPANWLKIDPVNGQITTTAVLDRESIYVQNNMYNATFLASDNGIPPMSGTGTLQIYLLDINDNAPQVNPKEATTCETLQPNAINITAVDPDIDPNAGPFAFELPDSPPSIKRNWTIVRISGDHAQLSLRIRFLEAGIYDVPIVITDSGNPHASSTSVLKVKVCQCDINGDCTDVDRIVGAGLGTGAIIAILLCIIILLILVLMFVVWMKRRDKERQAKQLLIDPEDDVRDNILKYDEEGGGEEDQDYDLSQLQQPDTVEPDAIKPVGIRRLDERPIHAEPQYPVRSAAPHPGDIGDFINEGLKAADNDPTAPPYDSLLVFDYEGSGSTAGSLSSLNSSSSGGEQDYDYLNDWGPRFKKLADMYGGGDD
measurementProtocol: cell-based or functional assay
Positions of bridges follow the written chain, without caps; N, C: chain ends.
measuredQuantity: % inhibition of N-cadherin dependent neurite outgrowth (peptide 250 µg/mL) (%)
Give the value, in units of %, as a plain number.

Example entries begin here.
Tell me measured % inhibition of N-cadherin dependent neurite outgrowth (peptide 250 µg/mL) for Ac-CHGVSSC-NH2 (disulfide 1-7 (inferred)) [N-Ac-CHGVSSC-NH2] please.
14.8

# return recorded % inhibition of N-cadherin dependent neurite outgrowth (peptide 250 µg/mL) for input Ac-CLRAHAVDC-NH2 (disulfide 1-9 (inferred)) [N-Ac-CLRAHAVDC-NH2]
76.3

Query % inhibition of N-cadherin dependent neurite outgrowth (peptide 250 µg/mL) for Ac-CHGVC-NH2 (disulfide 1-5 (inferred)) [N-Ac-CHGVC-NH2]
4.8

Item Ac-CRAHGVDC-NH2 (disulfide 1-8 (inferred)) [N-Ac-CRAHGVDC-NH2] : provide % inhibition of N-cadherin dependent neurite outgrowth (peptide 250 µg/mL)
-8

Shift focus to the following entry.
Specify % inhibition of N-cadherin dependent neurite outgrowth (peptide 250 µg/mL) for Ac-CAHAVC-NH2 (disulfide 1-6 (inferred)) [N-Ac-CAHAVC-NH2] and stop.
58.5
